I'd appreciate it if you could supply IC50 values for the items below.
molecular target: GFP-Sc-Dyn (Saccharomyces cerevisiae, UniProt P36022); test: NADH-coupled steady-state ATPase assay, GFP-Sc-Dyn basal ATPase; format: biochemical, S. cerevisiae
Sequence (P36022 1219-4092): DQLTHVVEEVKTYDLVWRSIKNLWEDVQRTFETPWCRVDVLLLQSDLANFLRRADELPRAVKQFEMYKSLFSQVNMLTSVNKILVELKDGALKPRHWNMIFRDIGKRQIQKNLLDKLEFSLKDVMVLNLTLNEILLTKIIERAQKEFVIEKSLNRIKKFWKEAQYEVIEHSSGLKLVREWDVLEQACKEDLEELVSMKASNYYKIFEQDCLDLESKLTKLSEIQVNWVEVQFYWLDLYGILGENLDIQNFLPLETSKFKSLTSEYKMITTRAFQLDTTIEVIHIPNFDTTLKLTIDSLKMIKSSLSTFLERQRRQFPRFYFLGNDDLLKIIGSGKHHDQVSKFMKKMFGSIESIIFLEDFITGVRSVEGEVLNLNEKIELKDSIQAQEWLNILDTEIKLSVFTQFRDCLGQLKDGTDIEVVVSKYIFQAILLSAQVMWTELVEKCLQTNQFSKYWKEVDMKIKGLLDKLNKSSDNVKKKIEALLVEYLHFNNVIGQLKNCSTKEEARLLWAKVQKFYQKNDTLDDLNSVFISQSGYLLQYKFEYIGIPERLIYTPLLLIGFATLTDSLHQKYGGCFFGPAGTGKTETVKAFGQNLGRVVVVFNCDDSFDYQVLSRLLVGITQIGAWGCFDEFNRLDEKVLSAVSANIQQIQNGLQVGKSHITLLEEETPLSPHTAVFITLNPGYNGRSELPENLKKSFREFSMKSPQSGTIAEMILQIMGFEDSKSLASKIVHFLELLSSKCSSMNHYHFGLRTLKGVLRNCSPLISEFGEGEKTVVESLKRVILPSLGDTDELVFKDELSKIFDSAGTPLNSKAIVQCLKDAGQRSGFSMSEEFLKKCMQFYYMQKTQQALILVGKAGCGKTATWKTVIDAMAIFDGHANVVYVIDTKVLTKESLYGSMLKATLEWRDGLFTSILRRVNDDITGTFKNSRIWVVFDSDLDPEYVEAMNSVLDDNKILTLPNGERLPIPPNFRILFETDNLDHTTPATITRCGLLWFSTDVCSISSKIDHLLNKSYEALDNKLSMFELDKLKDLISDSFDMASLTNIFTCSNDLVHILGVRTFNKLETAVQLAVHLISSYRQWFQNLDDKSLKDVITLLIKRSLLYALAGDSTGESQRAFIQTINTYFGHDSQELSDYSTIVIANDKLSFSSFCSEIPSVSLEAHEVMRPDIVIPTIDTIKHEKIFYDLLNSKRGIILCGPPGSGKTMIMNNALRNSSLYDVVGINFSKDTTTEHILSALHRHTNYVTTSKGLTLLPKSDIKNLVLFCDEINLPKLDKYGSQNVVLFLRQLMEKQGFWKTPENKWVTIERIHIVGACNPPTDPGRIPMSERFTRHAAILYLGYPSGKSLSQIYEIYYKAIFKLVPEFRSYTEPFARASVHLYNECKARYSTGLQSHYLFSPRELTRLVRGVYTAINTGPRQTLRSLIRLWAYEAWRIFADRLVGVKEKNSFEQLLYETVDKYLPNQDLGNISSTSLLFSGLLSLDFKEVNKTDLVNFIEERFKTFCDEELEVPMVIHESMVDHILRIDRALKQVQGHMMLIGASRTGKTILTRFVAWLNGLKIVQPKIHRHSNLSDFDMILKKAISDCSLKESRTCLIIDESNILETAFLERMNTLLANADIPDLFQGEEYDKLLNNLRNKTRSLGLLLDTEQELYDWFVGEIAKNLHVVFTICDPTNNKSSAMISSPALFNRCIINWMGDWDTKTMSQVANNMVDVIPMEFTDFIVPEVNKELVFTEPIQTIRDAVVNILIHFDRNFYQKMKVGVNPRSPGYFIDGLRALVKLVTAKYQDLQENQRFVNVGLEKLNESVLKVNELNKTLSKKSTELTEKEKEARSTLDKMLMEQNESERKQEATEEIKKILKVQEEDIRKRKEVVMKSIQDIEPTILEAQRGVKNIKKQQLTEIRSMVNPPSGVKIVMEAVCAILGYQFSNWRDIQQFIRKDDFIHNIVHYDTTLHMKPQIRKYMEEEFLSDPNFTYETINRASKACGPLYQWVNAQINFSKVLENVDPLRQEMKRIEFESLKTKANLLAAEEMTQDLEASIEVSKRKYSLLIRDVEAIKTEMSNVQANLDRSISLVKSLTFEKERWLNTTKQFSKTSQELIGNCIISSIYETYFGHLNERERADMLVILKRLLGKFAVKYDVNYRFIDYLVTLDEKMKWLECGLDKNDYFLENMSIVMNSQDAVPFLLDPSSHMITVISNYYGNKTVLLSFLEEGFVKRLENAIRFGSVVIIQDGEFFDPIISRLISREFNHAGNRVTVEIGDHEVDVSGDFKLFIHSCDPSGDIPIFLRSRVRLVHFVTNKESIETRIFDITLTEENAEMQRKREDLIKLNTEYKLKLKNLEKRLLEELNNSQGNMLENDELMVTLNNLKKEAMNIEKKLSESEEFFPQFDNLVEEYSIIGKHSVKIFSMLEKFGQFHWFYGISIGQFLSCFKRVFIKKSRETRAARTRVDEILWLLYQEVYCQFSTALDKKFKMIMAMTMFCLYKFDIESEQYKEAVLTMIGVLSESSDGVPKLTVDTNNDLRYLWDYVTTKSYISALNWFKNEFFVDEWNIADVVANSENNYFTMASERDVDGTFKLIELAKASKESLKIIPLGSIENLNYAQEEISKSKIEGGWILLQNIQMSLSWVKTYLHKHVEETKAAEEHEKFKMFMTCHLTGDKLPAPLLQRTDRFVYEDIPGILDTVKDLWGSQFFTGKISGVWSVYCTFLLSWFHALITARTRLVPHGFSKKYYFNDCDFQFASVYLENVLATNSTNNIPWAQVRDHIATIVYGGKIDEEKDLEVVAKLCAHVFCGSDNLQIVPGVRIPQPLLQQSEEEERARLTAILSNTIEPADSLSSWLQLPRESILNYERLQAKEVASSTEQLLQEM
Numbers only, in µM.

Look up IC50 for the entries below, preserving their order.
1. N#Cc1c(C2(c3ccc(Cl)cc3)CC2)nn2c(=O)c(Oc3cccc(Br)c3)c[nH]c12
2. N#Cc1c(C2(c3ccc(Cl)cc3)CC2)nn2c(=O)c(Oc3cccc(Cl)c3)c[nH]c12

Output:
1. 14
2. 10

----------
target: GFP-Sc-Dyn (Saccharomyces cerevisiae); experiment: Microscale thermophoresis; format: binding, S. cerevisiae; conditions: read-out: EC50, AMPPNP binding to GFP-Sc-Dyn (MST); mean ± 95% CI, n=3, 60% MST power
PROPERTY NAME: pEC50
Numbers only, as −log10 of the molar value.

Input: Report pEC50 for Nc1ncnc2c1ncn2[C@@H]1O[C@H](COP(=O)(O)OP(=O)(O)NP(=O)(O)O)[C@@H](O)[C@H]1O [AMPPNP, adenylyl imidodiphosphate, reference compound] please.
Output: 4.60
